# maps each entry to its GI50
- Tested on: UO-31
- Test Protocol: NCI tumour cell line growth inhibition, 48 h
Calls of active or inactive are those of the source. Cut-off read from the data, not from the text of the source: active = GI50 up to about 1.1 µM and inactive = higher.
Metric: GI50

* CC(=O)O[C@H]1C(=O)[C@@]2(C)[C@H]([C@H](OC(=O)c3ccccc3)[C@]3(O)C[C@H](OC(=O)[C@H](O)[C@@H](NC(=O)c4ccoc4)c4ccccc4)C(C)=C1C3(C)C)[C@]1(OC(C)=O)CO[C@@H]1C[C@@H]2O | 3.39 µM (inactive)
* O=C(O)C12CC3(C(=O)O)CC(C(=O)O)(CC(C(=O)O)(C1)C3=O)C2=O | > 100 µM (inactive)
* CC(C)CNC(=O)CCc1cccc2c1oc1c(CCN)cccc12 | 12.4 µM (inactive)
* Cc1ccc(C(=O)/C=C2/Nc3ccccc3NC2=O)c(C)c1 | 8.32 µM (inactive)
* Cc1ccc2ccc3ccc(C)nc3c2n1 | > 76.2 µM (inactive)
* CC(=O)O[C@H]1[C@@H](N2CCN(C)CC2)C[C@H]2[C@@H]3CC=C4C[C@@H](N5CCCC5)CC[C@]4(C)[C@H]3CC[C@@]21C | 34.9 µM (inactive)
* CC(C)(C)OC(=O)C1=C(C(=O)OC(C)(C)C)SC2(S1)C(C(=O)OC(C)(C)C)=C(C(=O)OC(C)(C)C)Sc1c2ssc1=O | 56.8 µM (inactive)
